assay: Assessment of solubility: HT solubility in pION buffer, UV spectrophotometry; settings: pH 6.8, aqueous buffer, kinetic from dmso stock, Solubility (pH 6.8), pH 6.8
Entry flag: t if solubility reaches 40 µg/mL; f if it does not.

Below are worked cases with known answers.
# MOLECULE, LABEL_VALUE
data = [
    ("Cc1ccc(OCc2ccc(C(=O)N3CCN(C)CC3)cc2C)c(-c2csc(N3C[C@H]4CC[C@@H](C3)[C@H]4C(=O)O)n2)c1 [Compound 300]", "t"),
    ("Cc1ccc(OCc2ccc(C(=O)N3CCCC(C)(O)C3)cc2C)c(-c2csc(N3C[C@H]4CC[C@@H](C3)[C@H]4C(=O)O)n2)c1 (stereo partly shown) [Compound 336]", "f"),
    ("Cc1ccc(OCc2ccc(CN3CCS(=O)(=O)CC3)cc2C)c(-c2csc(N3CC[C@]4(C(=O)O)C[C@@H]4C3)n2)c1 [Compound 222]", "f"),
]

Can Cc1ccc(OCc2ccc(C(=O)N3CC[C@@H](CO)C3)cc2C)c(-c2csc(N3C[C@H]4CC[C@@H](C3)[C@H]4C(=O)O)n2)c1 [Compound 326] be said to have solubility at or above 40 µg/mL?
t

Is it the case that CCN(CCC#N)C(=O)c1ccc(COc2ccc(C)cc2-c2csc(N3C[C@H]4CC[C@@H](C3)[C@H]4C(=O)O)n2)c(C)c1 [Compound 307] has solubility reaching or exceeding 40 µg/mL?
f

Hi, just wondering whether CO[C@@H]1CCN(C(=O)c2ccc(COc3ccc(C)cc3-c3csc(N4C[C@H]5CC[C@@H](C4)[C@H]5C(=O)O)n3)c(C)c2)C1 [Compound 329] shows solubility of 40 µg/mL or higher.
t

I'd appreciate it if you could say whether Cc1ccc(OCc2ccc(C(=O)N(C)CC3CCCO3)cc2C)c(-c2csc(N3C[C@H]4CC[C@@H](C3)[C@H]4C(=O)O)n2)c1 (stereo partly shown) [Compound 306] has solubility at least equal to 40 µg/mL.
t

Check if solubility >= 40 µg/mL (inclusive). Item: Cc1ccc(OCc2ccc(C(=O)N3CCOCC3)c(C)c2)c(-c2csc(N3C[C@H]4CC[C@@H](C3)[C@H]4C(=O)O)n2)c1 [Compound 281]
f
